Entries and their MIC-fold improvement vs. vancomycin values follow.
Test system: E. faecalis VRE 53
protocol text: MIC, broth microdilution, vancomycin-resistant E. faecalis VRE 53 (VanA)
Assay type: cell-based, Enterococcus faecalis
condition info: VRE 53; ratio of MIC of vancomycin and MIC of analogue
result type: MIC-fold improvement vs. vancomycin

| molecule | quantitative result |
| --- | --- |
| CCCCCn1cc(-c2ccc(NC(=O)CNC(=O)C3NC(=O)C4NC(=O)C(NC(=O)C5NC(=O)C(CC(N)=O)NC(=O)C(NC(=O)C(CC(C)C)NC)C(O)c6ccc(c(Cl)c6)Oc6cc5cc(c6OC5OC(CO)C(O)C(O)C5OC5CC(C)(N)C(O)C(C)O5)Oc5ccc(cc5Cl)C4O)c4ccc(O)c(c4)-c4c(O)cc(O)cc43)cc2)nn1 (centres unmarked) | 16 |
| CCCCCCCCCC(=O)N[C@@H](Cc1c[nH]c2ccccc12)C(=O)N[C@H](CC(N)=O)C(=O)N[C@@H](CC(=O)O)C(=O)N[C@@H]1C(=O)NCC(=O)N[C@@H](CCCN)C(=O)N[C@@H](CC(=O)O)C(=O)N[C@H](C)C(=O)N[C@@H](CC(=O)O)C(=O)NCC(=O)N[C@H](CO)C(=O)N[C@@H]([C@H](C)CC(=O)O)C(=O)N[C@@H](CC(=O)c2ccccc2N)C(=O)O[C@@H]1C [Daptomycin, reference compound] | 8 |
| CCCCCCn1cc(-c2ccc(NC(=O)CNC(=O)C3NC(=O)C4NC(=O)C(NC(=O)C5NC(=O)C(CC(N)=O)NC(=O)C(NC(=O)C(CC(C)C)NC)C(O)c6ccc(c(Cl)c6)Oc6cc5cc(c6OC5OC(CO)C(O)C(O)C5OC5CC(C)(N)C(O)C(C)O5)Oc5ccc(cc5Cl)C4O)c4ccc(O)c(c4)-c4c(O)cc(O)cc43)cc2)nn1 (centres unmarked) | 16 |
| CN[C@H](CC(C)C)C(=O)N[C@H]1C(=O)N[C@@H](CC(N)=O)C(=O)N[C@H]2C(=O)N[C@H]3C(=O)N[C@H](C(=O)N[C@H](C(=O)NCC(=O)Nc4c(C)cc(C)cc4C)c4cc(O)cc(O)c4-c4cc3ccc4O)[C@H](O)c3ccc(c(Cl)c3)Oc3cc2cc(c3O[C@@H]2O[C@H](CO)[C@@H](O)[C@H](O)[C@H]2O[C@H]2C[C@](C)(N)[C@H](O)[C@H](C)O2)Oc2ccc(cc2Cl)[C@H]1O | 16 |
| CNC(CC(C)C)C(=O)NC1C(=O)NC(CC(N)=O)C(=O)NC2C(=O)NC3C(=O)NC(C(=O)NC(C(=O)NCCCNC(=O)c4ccc(-c5ccccc5)cc4)c4cc(O)cc(O)c4-c4cc3ccc4O)C(O)c3ccc(c(Cl)c3)Oc3cc2cc(c3OC2OC(CO)C(O)C(O)C2OC2CC(C)(N)C(O)C(C)O2)Oc2ccc(cc2Cl)C1O (centres unmarked) | 16 |
| CCCCOc1ccc(C(=O)NCCCNC(=O)C2NC(=O)C3NC(=O)C(NC(=O)C4NC(=O)C(CC(N)=O)NC(=O)C(NC(=O)C(CC(C)C)NC)C(O)c5ccc(c(Cl)c5)Oc5cc4cc(c5OC4OC(CO)C(O)C(O)C4OC4CC(C)(N)C(O)C(C)O4)Oc4ccc(cc4Cl)C3O)c3ccc(O)c(c3)-c3c(O)cc(O)cc32)cc1 (centres unmarked) | 32 |
| CN[C@H](CC(C)C)C(=O)N[C@H]1C(=O)N[C@@H](CC(N)=O)C(=O)N[C@H]2C(=O)N[C@H]3C(=O)N[C@H](C(=O)N[C@H](C(=O)NCCNC(=O)/C=C/c4ccc(NS(=O)(=O)c5ccc(C(C)C)cc5)cc4)c4cc(O)cc(O)c4-c4cc3ccc4O)[C@H](O)c3ccc(c(Cl)c3)Oc3cc2cc(c3O[C@@H]2O[C@H](CO)[C@@H](O)[C@H](O)[C@H]2O[C@H]2C[C@](C)(N)[C@H](O)[C@H](C)O2)Oc2ccc(cc2Cl)[C@H]1O | 64 |
| C#Cc1ccc(/C=C/C(=O)NCCNC(=O)[C@H]2NC(=O)[C@H]3NC(=O)[C@H](NC(=O)[C@@H]4NC(=O)[C@H](CC(N)=O)NC(=O)[C@H](NC(=O)[C@@H](CC(C)C)NC)[C@H](O)c5ccc(c(Cl)c5)Oc5cc4cc(c5O[C@@H]4O[C@H](CO)[C@@H](O)[C@H](O)[C@H]4O[C@H]4C[C@](C)(N)[C@H](O)[C@H](C)O4)Oc4ccc(cc4Cl)[C@H]3O)c3ccc(O)c(c3)-c3c(O)cc(O)cc32)cc1 | 64 |
| CNC(CC(C)C)C(=O)NC1C(=O)NC(CC(N)=O)C(=O)NC2C(=O)NC3C(=O)NC(C(=O)NC(C(=O)NCC(=O)Nc4ccc(C#CC5CC5)cc4)c4cc(O)cc(O)c4-c4cc3ccc4O)C(O)c3ccc(c(Cl)c3)Oc3cc2cc(c3OC2OC(CO)C(O)C(O)C2OC2CC(C)(N)C(O)C(C)O2)Oc2ccc(cc2Cl)C1O (centres unmarked) | 64 |
| CN[C@H](CC(C)C)C(=O)N[C@H]1C(=O)N[C@@H](CC(N)=O)C(=O)N[C@H]2C(=O)N[C@H]3C(=O)N[C@H](C(=O)N[C@H](C(=O)NCCCNC(=O)c4ccc5ccccc5c4)c4cc(O)cc(O)c4-c4cc3ccc4O)[C@H](O)c3ccc(c(Cl)c3)Oc3cc2cc(c3O[C@@H]2O[C@H](CO)[C@@H](O)[C@H](O)[C@H]2O[C@H]2C[C@](C)(N)[C@H](O)[C@H](C)O2)Oc2ccc(cc2Cl)[C@H]1O | 16 |
| CN[C@H](CC(C)C)C(=O)N[C@H]1C(=O)N[C@@H](CC(N)=O)C(=O)N[C@H]2C(=O)N[C@H]3C(=O)N[C@H](C(=O)N[C@H](C(=O)NCCNC(=O)/C=C/c4ccc(NS(=O)(=O)c5ccccc5)cc4)c4cc(O)cc(O)c4-c4cc3ccc4O)[C@H](O)c3ccc(c(Cl)c3)Oc3cc2cc(c3O[C@@H]2O[C@H](CO)[C@@H](O)[C@H](O)[C@H]2O[C@H]2C[C@](C)(N)[C@H](O)[C@H](C)O2)Oc2ccc(cc2Cl)[C@H]1O | 16 |
